molecular target: Trypsin (Homo sapiens, UniProt P07477+P07478+P35030); experiment: Inhibition of human recombinant trypsin using H2N(EEdansyl)GKQLRVVNGG (KDabcyl)-NH2 as substrate by fluorometric analysis; type: protein assay
For each entry below, report its log10 of Ki value.
In our notation, the value equals log10 of Ki in nM.

Fill in log10 of Ki for record CC1CN(Cc2ccc(C(=N)N)cc2)C(=O)N(C2CCN(Cc3ccccc3)CC2)C1 (stereo not given)
3.68

Fill in log10 of Ki for record N=C(N)c1cccc(N2CC(NC(=O)Cc3ccccc3)CN(CC3CCN(Cc4ccccc4)CC3)C2=O)c1 (stereo not given)
2.70

Fill in log10 of Ki for record CC1CN(CCC2CCN(Cc3ccccc3)CC2)C(=O)N(c2cccc(C(=N)N)c2)C1 (stereo not given)
3.44

Fill in log10 of Ki for record COC1CN(CC2CCN(Cc3ccccc3)CC2)C(=O)N(c2cccc(C(=N)N)c2)C1 (stereo not given)
2.88

Fill in log10 of Ki for record CS(=O)(=O)NC1CN(CC2CCN(Cc3ccccc3)CC2)C(=O)N(c2cccc(C(=N)N)c2)C1 (stereo not given)
2.62

Fill in log10 of Ki for record N=C(N)c1cccc(N2CC(CNC(=O)Cc3ccccc3)CN(CC3CCN(Cc4ccccc4)CC3)C2=O)c1 (stereo not given)
2.77

Fill in log10 of Ki for record CC1CN(c2ccc(C(=N)N)cc2)C(=O)N(C2CCN(Cc3ccccc3)CC2)C1 (stereo not given)
4.55

Fill in log10 of Ki for record N=C(N)c1cccc(N2CC(NS(=O)(=O)c3ccccc3)CN(CC3CCN(Cc4ccccc4)CC3)C2=O)c1 (stereo not given)
2.53

Fill in log10 of Ki for record N=C(N)c1cccc(NC(=O)NC2CCN(Cc3ccccc3)CC2)c1
3.72

Fill in log10 of Ki for record CC1CN(Cc2cccc(C(=N)N)c2)C(=O)N(C2CCN(Cc3ccccc3)CC2)C1 (stereo not given)
3.68
